# system under test: Gamma-secretase
# protocol text: Inhibition of human gamma-secretase in HEK-APPswe cells assessed as amyloid beta42 production by electrochemiluminescence assay
# Format: cell-based
Please note: Criterion met applies when pIC50 is 7 or greater, and Criterion not met applies otherwise.

IN: Can COc1cc(Nc2nc3n(n2)CCC(=O)N3c2ccccc2)ccc1-n1cnc(C)c1 be said to have pIC50 at or above 7?
OUT: Criterion met

IN: Check the entry COc1cc(Nc2nc3n(n2)C(C)CCN3CC(C)(C)O)ccc1-n1cnc(C)c1 (stereo not drawn) : does pIC50 equal or exceed 7?
OUT: Criterion not met

IN: Decide: pIC50 of N#CCc1ccc(Nc2nc3n(n2)CCCC3c2ccc(F)cc2)cc1 (stereo not drawn) >= 7?
OUT: Criterion not met

IN: I'd appreciate it if you could say whether COc1cc(Nc2nc3n(n2)CCC(=O)N3Cc2ccccc2)ccc1-n1cnc(C)c1 has pIC50 at least equal to 7.
OUT: Criterion met

IN: Hi, just wondering whether COc1cc(Nc2nc3n(n2)C2(CC2)CC(=O)N3Cc2ccc(F)cc2)ccc1-n1cnc(C)c1 shows pIC50 of 7 or higher.
OUT: Criterion met

IN: Determine whether measured pIC50 meets or exceeds 7 for COc1cc(Nc2nc3n(n2)CCCN3CCC2CC2)ccc1-n1cnc(C)c1
OUT: Criterion met

IN: Please tell me: is the compound COc1cc(Nc2nc3n(n2)CCC(O)N3Cc2ccccc2)ccc1-n1cnc(C)c1 (stereo not drawn) at or over 7 in terms of pIC50?
OUT: Criterion met

IN: Test whether the compound COc1cc(Nc2nc3n(n2)CCC(=O)N3Cc2ccccc2C)ccc1-n1cnc(C)c1 records pIC50 of 7 or higher.
OUT: Criterion met

IN: Exam item: decide whether the reported pIC50 for COc1cc(Nc2nc3n(n2)CCCC3c2ccc(F)cc2)ccc1-n1cnc(C)n1 (stereo in doubt; 14A) is at least 7.
OUT: Criterion met

IN: Quick check: does COc1cc(Nc2nc3n(n2)CCC(=O)N3Cc2ccccc2C)ccc1-c1ccnnc1 have pIC50 greater than or equal to 7?
OUT: Criterion met

IN: Could you verify whether the entry COc1cc(Nc2nc3n(n2)C(C)CC(=O)N3Cc2cc(F)ccc2F)ccc1-n1cnc(C)c1 (stereo not drawn) shows pIC50 of no less than 7?
OUT: Criterion met

IN: In plain terms: is recorded pIC50 at least 7 for COc1cc(Nc2nc3n(n2)CCCN3Cc2ccccc2)ccc1-n1cnc(C)c1 ?
OUT: Criterion met

IN: Please check the record COc1cc(Nc2nc3n(n2)CCC(=O)N3Cc2ccccc2C)ccc1-c1cnnc(C)c1 and state if its pIC50 is at or above 7.
OUT: Criterion met

IN: Does the reported pIC50 for COc1cc(Nc2nc3n(n2)CCC(=O)N3Cc2ccccc2C)ccc1-c1cc(C)cnn1 fall at or above the 7 mark?
OUT: Criterion not met

IN: Evaluate Cc1nnc(-c2ccc(Nc3nc4n(n3)CCCC4c3ccc(F)cc3)cc2)o1 (stereo not drawn) : pIC50 at minimum 7?
OUT: Criterion not met

IN: Record COc1cc(Nc2nc3n(n2)CCC(=O)N3Cc2ccccc2C(F)(F)F)ccc1-n1cnc(C)n1 ; criterion: pIC50 no lower than 7. Met?
OUT: Criterion met

IN: Decide: is the reported value of pIC50 for COc1cc(Nc2nc3n(n2)C(C)(C)CC(=O)N3Cc2ccc(F)cc2)ccc1-n1cnc(C)c1 equal to or greater than 7?
OUT: Criterion met

IN: Has COc1cc(Nc2nc3n(n2)CCC(=O)N3Cc2ccccc2C)ccc1-c1noc(C)n1 a recorded pIC50 greater than or equal to 7?
OUT: Criterion not met

IN: Would you say COc1cc(Nc2nc3n(n2)CCCC3c2ccc(F)cc2)ccc1-c1cnnc(C)c1 (stereo not drawn) shows pIC50 at minimum 7?
OUT: Criterion met

IN: Exam item: decide whether the reported pIC50 for COc1cc(Nc2nc3n(n2)C(C)CC(=O)N3Cc2ccccc2)ccc1-n1cnc(C)c1 (stereo in doubt; 19A) is at least 7.
OUT: Criterion met

IN: Is reported pIC50 greater than or equal to 7 here: COc1cc(Nc2nc3n(n2)CCC(=O)N3Cc2ccccc2Cl)ccc1-n1cnc(C)n1
OUT: Criterion met

IN: Confirm if pIC50 reported for the compound COc1cc(Nc2nc3n(n2)C(C)CC(=O)N3Cc2ccccc2)ccc1-n1cnc(C)c1 (stereo in doubt; 19B) is 7 or above.
OUT: Criterion met

IN: Check the entry COc1cc(Nc2nc3n(n2)CCCC3c2ccccc2)ccc1-n1cnc(C)c1 (stereo not drawn) : does pIC50 equal or exceed 7?
OUT: Criterion met
